Tested on: ATP;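 also: ATP exposure 15 min at 22 °C before imaging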
Test: switch fluorescence ratio, 500 uM ATP over buffer (Cy3 cluster intensity, sum of 5 cycles each) (fold (ratio)); higher = stronger signal-on switching upon ATP binding; sequences stand for … in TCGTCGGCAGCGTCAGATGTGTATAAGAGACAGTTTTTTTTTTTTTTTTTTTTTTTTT…TC
Test parameters: aptamer strand: ATP DNA aptamer (quencher-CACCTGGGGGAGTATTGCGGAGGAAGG + anchor), 100 nM annealed; ATP concentration: 500 uM

Residue sequence: TGGTTAGGGA
switch fluorescence ratio: 1.01
//
Residue sequence: TTGAGAGCGG
switch fluorescence ratio: 1.01
//
Residue sequence: TGTTGTTTGT
switch fluorescence ratio: 1.02
//
Residue sequence: GGGGGCCCTG
switch fluorescence ratio: 0.99
//
Residue sequence: GGGGATGAGA
switch fluorescence ratio: 0.986
//
Residue sequence: ATTAGGGTGG
switch fluorescence ratio: 0.992
//
Residue sequence: TTATAAAGAG
switch fluorescence ratio: 1.01
//
Residue sequence: GGCAGATTTT
switch fluorescence ratio: 0.999
//
Residue sequence: AAGGCGCGTG
switch fluorescence ratio: 1.01
//
Residue sequence: AACGTTAGGG
switch fluorescence ratio: 0.998
//
Residue sequence: GGGTGTAAGG
switch fluorescence ratio: 0.998
//
Residue sequence: CGGGAGGTA
switch fluorescence ratio: 1.02
//
Residue sequence: ATGGTTAGCT
switch fluorescence ratio: 1.02

---

Tested on: ATP;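 also: ATP exposure 15 min at 22 °C before imaging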
Test: switch fluorescence ratio, 500 uM ATP over buffer (Cy3 cluster intensity, sum of 5 cycles each) (fold (ratio)); higher = stronger signal-on switching upon ATP binding; sequences stand for … in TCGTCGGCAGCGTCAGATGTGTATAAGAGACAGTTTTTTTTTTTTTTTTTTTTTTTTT…TC
Test parameters: aptamer strand: ATP DNA aptamer (quencher-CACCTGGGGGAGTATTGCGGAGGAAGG + anchor), 100 nM annealed; ATP concentration: 500 uM
Measurement kind: switch fluorescence ratio

Residue sequence: TTACTGCTTT
Study target: ATP;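 also: ATP exposure 15 min at 22 °C before imaging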
Val: 1.02
//
Residue sequence: TAATTTGTTA
Study target: ATP;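 also: ATP exposure 15 min at 22 °C before imaging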
Val: 1
//
Residue sequence: ACTTGTCATC
Study target: ATP;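 also: ATP exposure 15 min at 22 °C before imaging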
Val: 0.992
//
Residue sequence: TCCAGTTATT
Study target: ATP;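 also: ATP exposure 15 min at 22 °C before imaging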
Val: 1
//
Residue sequence: TTTGATATTG
Study target: ATP;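 also: ATP exposure 15 min at 22 °C before imaging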
Val: 0.994
//
Residue sequence: CGGCGGCTTC
Study target: ATP;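 also: ATP exposure 15 min at 22 °C before imaging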
Val: 1.01
//
Residue sequence: TTAGTCCACT
Study target: ATP;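 also: ATP exposure 15 min at 22 °C before imaging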
Val: 1
//
Residue sequence: TAGGTCTACG
Study target: ATP;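 also: ATP exposure 15 min at 22 °C before imaging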
Val: 1.02
//
Residue sequence: CACGTTGAAC
Study target: ATP;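 also: ATP exposure 15 min at 22 °C before imaging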
Val: 1.11
//
Residue sequence: GCTGATATGG
Study target: ATP;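 also: ATP exposure 15 min at 22 °C before imaging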
Val: 1.02
//
Residue sequence: AGCCGCCGGG
Study target: ATP;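 also: ATP exposure 15 min at 22 °C before imaging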
Val: 1.04
//
Residue sequence: CGGGGTAATC
Study target: ATP;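 also: ATP exposure 15 min at 22 °C before imaging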
Val: 1.03
//
Residue sequence: TGAGTGCAGG
Study target: ATP;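 also: ATP exposure 15 min at 22 °C before imaging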
Val: 1.02
//
Residue sequence: ATAAAAGAAG
Study target: ATP;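 also: ATP exposure 15 min at 22 °C before imaging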
Val: 1.01
//
Residue sequence: GGGGGATTGG
Study target: ATP;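 also: ATP exposure 15 min at 22 °C before imaging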
Val: 0.999
//
Residue sequence: CATGTCCAGG
Study target: ATP;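 also: ATP exposure 15 min at 22 °C before imaging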
Val: 1.46
//
Residue sequence: TAAGGGAAAA
Study target: ATP;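 also: ATP exposure 15 min at 22 °C before imaging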
Val: 0.977
//
Residue sequence: GCTGGGTAAC
Study target: ATP;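 also: ATP exposure 15 min at 22 °C before imaging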
Val: 1.01
//
Residue sequence: TCACCAGGGG
Study target: ATP;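 also: ATP exposure 15 min at 22 °C before imaging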
Val: 1.76
//
Residue sequence: AAATGTGTAG
Study target: ATP;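 also: ATP exposure 15 min at 22 °C before imaging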
Val: 0.977
//
Residue sequence: CGGGTGGGTC
Study target: ATP;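 also: ATP exposure 15 min at 22 °C before imaging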
Val: 1.29
//
Residue sequence: GGCACCTGAC
Study target: ATP;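 also: ATP exposure 15 min at 22 °C before imaging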
Val: 1.95
//
Residue sequence: GGATGTGAGC
Study target: ATP;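 also: ATP exposure 15 min at 22 °C before imaging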
Val: 0.983
//
Residue sequence: GAGAGGAGGG
Study target: ATP;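 also: ATP exposure 15 min at 22 °C before imaging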
Val: 0.944
//
Residue sequence: TCGGGAATTT
Study target: ATP;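 also: ATP exposure 15 min at 22 °C before imaging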
Val: 1.07
//
Residue sequence: AAGTTTAGAA
Study target: ATP;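 also: ATP exposure 15 min at 22 °C before imaging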
Val: 1
//
Residue sequence: TAATCAGAGG
Study target: ATP;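 also: ATP exposure 15 min at 22 °C before imaging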
Val: 0.994
//
Residue sequence: CCCTTGTCCG
Study target: ATP;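 also: ATP exposure 15 min at 22 °C before imaging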
Val: 1.05
//
Residue sequence: CGCTTCGTGA
Study target: ATP;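 also: ATP exposure 15 min at 22 °C before imaging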
Val: 1.06
//
Residue sequence: TTTATTGTCC
Study target: ATP;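 also: ATP exposure 15 min at 22 °C before imaging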
Val: 0.975
//
Residue sequence: TTGAAGTCCG
Study target: ATP;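 also: ATP exposure 15 min at 22 °C before imaging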
Val: 1.03
//
Residue sequence: CATTAGCCAG
Study target: ATP;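 also: ATP exposure 15 min at 22 °C before imaging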
Val: 0.998
//
Residue sequence: GAATTTGTGA
Study target: ATP;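 also: ATP exposure 15 min at 22 °C before imaging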
Val: 0.98
//
Residue sequence: ACGGCCTAAA
Study target: ATP;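 also: ATP exposure 15 min at 22 °C before imaging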
Val: 0.98
//
Residue sequence: AAGTTACGTT
Study target: ATP;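 also: ATP exposure 15 min at 22 °C before imaging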
Val: 1.04
//
Residue sequence: TCCATCGGGT
Study target: ATP;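 also: ATP exposure 15 min at 22 °C before imaging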
Val: 1.01
